TARGET: T1, recombinant human CD3ε-ECD His protein (human, UniProt P07766 23-126)
T1 construct: extracellular domain; also called human CD3ε-His; CD3ε antigen protein; not shown: His tag
T1 sequence (P07766 23-126): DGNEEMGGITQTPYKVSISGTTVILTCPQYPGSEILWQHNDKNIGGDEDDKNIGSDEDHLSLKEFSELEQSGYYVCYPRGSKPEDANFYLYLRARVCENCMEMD
METHOD SUMMARY: SPR, antibody captured on Protein A chip
RECORDED ENDPOINT: kon (M⁻¹ s⁻¹)
Your answer is read as M⁻¹ s⁻¹, so omit the unit and give the number.

Below are worked cases with known answers.
BINDER	kon / M⁻¹ s⁻¹
7-35.6-H2-L3 humanized antibody (antibody, human IgG1, lambda, V domains shown) VH: EVQLVESGGGLVQPGGSLKLSCAASGFTFNTYAMNWVRQASGKGLEWVGRIRSKINNYATYYGDSVKDRFTISRDDSKNTFYLQMNSLKTEDTAVYYCVIHENYGSISWFAYWGQGTLVTVSS VL: ETVVTQEPSLTVSPGGTVTLTCRSSTGAVTTSNYANWVQQKPGQAFTGLIGGTNNRAPWTPARFSGSLLGGKAALTLSGVQPEDEAEYYCALWYSNHWVFGGGTKLTVLG	286000
5-7.13-H1a-L2 humanized antibody (antibody, human IgG1, kappa, V domains shown) VH: EVQLVQSGAEVKKPGASVKVSCKASGYTFTSYWVHWVRQAPGQRLEWMGNINPSDGVTNYNEKFKSRVTITVDKSASTAYMELSSLRSEDTAVYYCTRDAYGQYYFDNWGQGTTVTVSS VL: DIVMTQTPLSLPVTPGEPASISCKSSQSLLNSRTRKNYLAWYLQKPGQSPQLLIYWASVRDSGVPDRFSGSGSGTDFTLKISRVEAEDVGVYYCIQSYYLRTFGGGTKVEIKR	266000

Write down kon measured for item 6-44.5-H1-L2 humanized antibody (antibody, human IgG1, kappa, V domains shown) VH: EVQLVQSGAEVKKPGSSVKVSCKASGHTFSSHIMHWVRQAPGQGLEWMGYINPNNDRTEYSEKFKGRVTITADKSTSTAYMELSSLRSEDTAVYYCAGEAYYSNSLYAMDYWGQGTTVTVSS VL: DIVMTQSPDSLAVSLGERATINCKSSQSLFNSRTRKNYLAWYQQKPGQSPKLLIYWASTRESGVPDRFSGSGSGTDFTLTISSLQAEDVAVYYCKQSYYLRTFGGGTKVEIKR
466000
